Target: Y641N EZH2 (Homo sapiens, UniProt Q15910, Y641N)
Sequence (Q15910 whole entry Y641N): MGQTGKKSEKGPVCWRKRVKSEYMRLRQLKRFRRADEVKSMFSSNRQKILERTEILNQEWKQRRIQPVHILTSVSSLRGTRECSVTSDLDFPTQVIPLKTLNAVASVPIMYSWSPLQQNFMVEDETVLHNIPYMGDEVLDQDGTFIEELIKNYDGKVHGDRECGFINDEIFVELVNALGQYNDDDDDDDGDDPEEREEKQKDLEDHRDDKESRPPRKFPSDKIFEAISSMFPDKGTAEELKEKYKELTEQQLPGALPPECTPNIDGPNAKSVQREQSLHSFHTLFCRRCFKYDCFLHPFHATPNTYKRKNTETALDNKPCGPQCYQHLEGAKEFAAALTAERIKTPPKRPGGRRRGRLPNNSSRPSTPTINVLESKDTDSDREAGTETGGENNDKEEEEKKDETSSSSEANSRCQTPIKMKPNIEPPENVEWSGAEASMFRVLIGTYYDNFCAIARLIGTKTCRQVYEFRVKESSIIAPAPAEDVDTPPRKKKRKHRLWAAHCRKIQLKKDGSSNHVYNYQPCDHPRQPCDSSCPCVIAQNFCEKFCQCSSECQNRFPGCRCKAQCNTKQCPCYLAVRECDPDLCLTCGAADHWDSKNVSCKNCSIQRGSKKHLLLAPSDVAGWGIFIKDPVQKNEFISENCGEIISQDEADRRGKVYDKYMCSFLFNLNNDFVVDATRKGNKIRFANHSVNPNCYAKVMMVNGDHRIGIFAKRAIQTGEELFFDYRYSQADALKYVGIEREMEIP
Sequence (O75530 whole entry partner): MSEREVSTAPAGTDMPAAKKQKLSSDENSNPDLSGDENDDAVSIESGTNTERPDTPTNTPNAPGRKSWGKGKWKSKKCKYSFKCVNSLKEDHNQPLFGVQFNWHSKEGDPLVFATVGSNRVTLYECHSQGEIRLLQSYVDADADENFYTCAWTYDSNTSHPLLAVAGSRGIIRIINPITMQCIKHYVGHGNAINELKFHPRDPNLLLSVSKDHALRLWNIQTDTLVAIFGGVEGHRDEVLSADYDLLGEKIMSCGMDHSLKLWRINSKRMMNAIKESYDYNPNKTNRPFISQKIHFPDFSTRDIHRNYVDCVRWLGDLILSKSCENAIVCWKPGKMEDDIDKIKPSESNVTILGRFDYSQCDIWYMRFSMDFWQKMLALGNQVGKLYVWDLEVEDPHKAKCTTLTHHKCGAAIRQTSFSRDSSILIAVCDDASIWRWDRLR
Sequence (Q15022 whole entry partner): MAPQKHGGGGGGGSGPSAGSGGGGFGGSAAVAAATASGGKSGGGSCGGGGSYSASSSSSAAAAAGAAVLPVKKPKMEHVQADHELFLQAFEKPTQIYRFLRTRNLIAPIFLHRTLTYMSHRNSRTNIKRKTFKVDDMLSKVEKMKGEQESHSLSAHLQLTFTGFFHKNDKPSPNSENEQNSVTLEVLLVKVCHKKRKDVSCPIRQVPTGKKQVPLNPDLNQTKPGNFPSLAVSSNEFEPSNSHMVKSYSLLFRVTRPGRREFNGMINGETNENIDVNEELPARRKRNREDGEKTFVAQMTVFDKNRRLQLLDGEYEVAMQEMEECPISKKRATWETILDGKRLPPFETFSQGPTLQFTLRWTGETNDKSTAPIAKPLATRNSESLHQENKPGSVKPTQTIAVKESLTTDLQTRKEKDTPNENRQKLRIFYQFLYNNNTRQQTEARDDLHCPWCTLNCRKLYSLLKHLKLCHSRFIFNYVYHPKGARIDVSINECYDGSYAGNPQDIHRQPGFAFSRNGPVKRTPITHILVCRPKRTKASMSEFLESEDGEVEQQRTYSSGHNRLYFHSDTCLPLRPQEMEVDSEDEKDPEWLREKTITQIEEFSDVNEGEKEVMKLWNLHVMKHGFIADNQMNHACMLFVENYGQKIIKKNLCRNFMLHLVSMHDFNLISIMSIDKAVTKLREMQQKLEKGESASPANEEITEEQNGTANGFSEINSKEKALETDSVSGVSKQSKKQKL
Assay: Y641N EZH2 activity inhibition assay (as EZH2 assay, reconstituted H3K27Me2 oligonucleosomes as substrate)
Conditions: Y641N EZH2 mutant enzyme
Procedure: EZH2 Assay: Assays were carried out by mixing rPRC2 together with biotinylated oligonucleosome substrates in the presence of the radio-labeled enzyme co-factor, S-adenosyl-L-methionine (^3H SAM) (Perkin Elmer) and monitoring the enzymatically mediated transfer of tritiated methyl groups from ^3H SAM to histone lysine residues. […]
Below, each of the molecules is paired with its reported IC50 value.

// below: answered molecules
Cc1cc(C)c(CNC(=O)c2ccc(C(C)Oc3ccccc3C)cc2)c(=O)[nH]1 (stereo not shown)    1 to 10 µM
Cc1cc(C)c(CNC(=O)c2ccc(C(C)Oc3ccccc3)cc2Cl)c(=O)[nH]1 (stereo not shown)    < 1 µM
O=C(NCc1ccc(-c2ccccc2)[nH]c1=O)c1ccc(Oc2ccccc2)cc1    > 80 µM
Cc1cc(C)c(CNC(=O)c2ccc([C@@H](C)Oc3ccccc3)cc2C)c(=O)[nH]1    > 80 µM
Cc1cc(C)c(CNC(=O)c2ccc(C3CCCC3)cc2)c(=O)[nH]1    1 to 10 µM
Cc1cc(C)c(CNC(=O)c2ccc(Oc3ccccc3)cc2Cl)c(=O)[nH]1    1 to 10 µM
Cc1cc(CNC(=O)c2ccc(C(C)Oc3ccccc3)cc2)c(=O)[nH]c1C (stereo not shown)    > 80 µM
Cc1cc(C)c(CNC(=O)c2ccc(C(C)N3CCCCC3)cc2)c(=O)[nH]1 (stereo not shown)    10 to 50 µM

Quick one: IC50 of Cc1cc(C)c(CNC(=O)c2ccc(C(C)n3ccccc3=O)cc2)c(=O)[nH]1 (stereo not shown) ?
> 80 µM

Try Cc1cc(C)c(CNC(=O)c2ccc(Cc3ccccc3)cc2)c(=O)[nH]1 next.
1 to 10 µM

====

Target: Y641N EZH2 (Homo sapiens, UniProt Q15910, Y641N)
Experiment: Y641N EZH2 activity inhibition assay (as EZH2 assay, reconstituted H3K27Me2 oligonucleosomes as substrate)
Settings: Y641N EZH2 mutant enzyme
pIC50: −log10 of the molar value.
property_name: pIC50

Cc1cc(C)c(CNC(=O)c2ccc(C(C)COc3ccccc3)cc2)c(O)n1 (stereo not shown)    < 4.10
Cc1cc(C)c(CNC(=O)c2ccc(C3CCCO3)cc2)c(=O)[nH]1 (stereo not shown)    4.30 to 5.00
Cc1cc(C)c(CNC(=O)c2ccc(N(C)c3ccccc3)cc2)c(=O)[nH]1    5.00 to 6.00

Here's the next entry for you.
Which measured pIC50 value corresponds to Cc1cc(C)c(CNC(=O)c2ccc(Oc3ncccn3)cc2)c(=O)[nH]1 ?
< 4.10

====

Target: Y641N EZH2 (Homo sapiens, UniProt Q15910, Y641N)
Assay: Y641N EZH2 activity inhibition assay (as EZH2 assay, reconstituted H3K27Me2 oligonucleosomes as substrate)
Details: Y641N EZH2 mutant enzyme
pIC50: −log10 of the molar value.
property_name: pIC50

Reference set, count: 3
Cc1cc(C)c(CN(C)C(=O)c2ccc(Oc3ccccc3)cc2)c(O)n1    < 4.30
Cc1cc(C)c(CNC(=O)c2ccc(C(CO)Oc3ccccc3)cc2)c(=O)[nH]1 (stereo not drawn)    < 4.10
Cc1cc(C)c(CNC(=O)c2ccc(C(C)Oc3cccc(F)c3)cc2)c(=O)[nH]1 (stereo not drawn)    > 6.00

What value of pIC50 has been reported for the following compound? Cc1cc(C)c(CNC(=O)c2ccc(Oc3ccccc3)nc2)c(=O)[nH]1
4.30 to 5.00

Try this compound next: Cc1cc(C)c(CNC(=O)c2ccc(CN(C)c3ccccc3)cc2)c(=O)[nH]1
< 4.10

Now this one: O=C(NCc1cc2c([nH]c1=O)CCCC2)c1ccc(Oc2ccccc2)cc1
< 4.10

====

Examples of molecules with documented pIC50 follow.
Biological target: Y641N EZH2 (Homo sapiens, UniProt Q15910, Y641N)
Assay: Y641N EZH2 activity inhibition assay (as EZH2 assay, reconstituted H3K27Me2 oligonucleosomes as substrate)
Conditions: Y641N EZH2 mutant enzyme
pIC50: −log10 of the molar value.

Sample records with pIC50:
Cc1cc(C)c(CNC(=O)c2ccc(Oc3ccccc3C#N)cc2)c(=O)[nH]1 [Compound I-2]    4.30 to 5.00
Cc1cc(C)c(CNC(=O)c2ccc(C(C)(O)c3ccccc3)cc2)c(=O)[nH]1 (stereo not drawn) [Compound I-25]    4.30 to 5.00
Cc1cc(C)c(CNC(=O)c2ccc(C3CCOC3)cc2)c(=O)[nH]1 (stereo not drawn) [Compound I-83]    5.00 to 6.00
Cc1cc(N)c(CNC(=O)c2ccc(Oc3ccccc3)cc2)c(=O)[nH]1 [Compound I-196]    < 4.10
Cc1cc(C(F)(F)F)c(CNC(=O)c2ccc(Oc3ccccc3)cc2)c(=O)[nH]1 [Compound I-65]    < 4.10

For the record Cc1cc(C)c(CNC(=O)c2ccc(C(C)Oc3ccccc3)cc2)c(=O)[nH]1 (stereo in doubt) [Compound I-30] , what value of pIC50 is listed for Y641N EZH2 (Homo sapiens, UniProt Q15910, Y641N)?
< 4.10

Let us now turn to Cc1cccc(OC(C)c2ccc(C(=O)NCc3c(C)cc(C)[nH]c3=O)cc2)c1 (stereo not drawn) [Compound I-39]
> 6.00

Now give it for Cc1cc(C)c(CNC(=O)c2ccc(Oc3ccccc3)c(C)c2)c(=O)[nH]1 [Compound I-37] too.
5.00 to 6.00

Do the same for Cc1cc(C)c(CNC(=O)c2ccc(C(C)Oc3ccccc3)c(F)c2)c(=O)[nH]1 (single isomer, unassigned) [Compound I-161] please
> 6.00

====

Biological target: Y641N EZH2 (Homo sapiens, UniProt Q15910, Y641N)
Experiment: Y641N EZH2 activity inhibition assay (as EZH2 assay, reconstituted H3K27Me2 oligonucleosomes as substrate)
Settings: Y641N EZH2 mutant enzyme
Protocol: EZH2 Assay: Assays were carried out by mixing rPRC2 together with biotinylated oligonucleosome substrates in the presence of the radio-labeled enzyme co-factor, S-adenosyl-L-methionine (^3H SAM) (Perkin Elmer) and monitoring the enzymatically mediated transfer of tritiated methyl groups from ^3H SAM to histone lysine residues. […]
Below is a list of entries, each paired with its recorded IC50 value.

The cases that follow already have their IC50 on record.
Cc1cc(C)c(CNC(=O)c2ccc([C@@H](C)Oc3cccc(C#N)c3)cc2)c(=O)[nH]1    > 80 µM
Cc1cc(C)c(CNC(=O)c2ccc(C(C)Oc3ccc(F)cc3)cc2)c(=O)[nH]1 (stereo not shown)    < 1 µM
Cc1cc(C)c(CNC(=O)c2ccc(C(C)OC3CCOC3)cc2)c(=O)[nH]1 (stereo not shown)    1 to 10 µM

Recorded IC50 for Cc1cc(C)c(CNC(=O)c2ccc(Oc3ccccc3)nn2)c(=O)[nH]1 , please?
> 80 µM

Further, for Cc1cc(C)c(CNC(=O)c2ccc(CN3CCN(CCO)CC3)cc2)c(=O)[nH]1 ?
> 80 µM

Moving on to the next molecule: Cc1cc(C)c(CNC(=O)c2ccc(S(=O)(=O)c3ccccc3)cc2)c(=O)[nH]1
> 80 µM

Now the same for Cc1cc(C)c(CNC(=O)c2ccc([C@H](C)Oc3cccc(-c4ccc(N)nc4)c3)cc2)c(=O)[nH]1
< 1 µM

Next molecule: Cc1cc(C)c(CNC(=O)c2ccc3c(c2)CCC3Oc2ccccc2)c(=O)[nH]1 (stereo not shown)
> 80 µM

Would you kindly repeat that for Cc1cc(C)c(CNC(=O)c2cnc(Oc3ccccc3)nc2)c(=O)[nH]1 ?
> 80 µM

Same question, Cc1cc(C)c(CNC(=O)c2ccc(COc3ccccc3)c(C)c2)c(=O)[nH]1 this time
1 to 10 µM

====

Reported IC50, UniProtKB Q15910.

COC(c1ccccc1)c1ccc(C(=O)NCc2c(C)cc(C)[nH]c2=O)cc1 (stereo not drawn)    10 to 50 µM
Cc1cc(C)c(CNC(=O)c2ccc(C(C)COc3ccccc3)cc2)c(O)n1 (stereo not drawn)    < 1 µM
Cc1cc(C)c(CN(C)C(=O)c2ccc(Oc3ccccc3)cc2)c(O)n1    1 to 10 µM

So what does the record say about IC50 for Cc1cc(N)c(CNC(=O)c2ccc(Oc3ccccc3)cc2)c(=O)[nH]1 ?
1 to 10 µM

Field entry: Cc1cc(C)c(CNC(=O)c2ccc([C@H](C)Oc3cccc(-c4ccc(N)nc4)c3)cc2)c(=O)[nH]1
< 1 µM

Please do the same for Cc1cc(C)c(CNC(=O)c2ccc(C(C)OC3CCOCC3)cc2)c(=O)[nH]1 (stereo not drawn) as well.
< 1 µM

Now consider Cc1cc(C)c(CNC(=O)c2ccc(C(C)N3CCCCC3)cc2C)c(=O)[nH]1 (stereo not drawn) and answer again.
1 to 10 µM

Try this molecule next: Cc1cc(C)c(CNC(=O)c2ccc(CN(C)c3ccccc3)cc2)c(=O)[nH]1
10 to 50 µM

// next record Cc1cc(C)c(CNC(=O)c2ccc(C(C)Oc3cccnc3)nc2)c(=O)[nH]1 (stereo not drawn)
1 to 10 µM
